system: SK-MEL-2 melanoma; assay: NCI-60 one-dose screen, 48 h (100 = growth as untreated, 0 = no growth, -100 = all killed); details: 10 µM unless noted
About 83,000 compounds went through this panel and 20% of them were active in at least one assay; those are over-represented in the sample as a whole.
For each entry below, report its growth value.
Give bare numbers, in %.

compound	scale.unit	meas.value
C/C(=N\O)c1ccc(Cl)cc1	%	120

Provide growth for all items below, preserving their order.
1. Cn1ccnc1C(=O)/C=C/c1ccc(CC(=O)Nc2cc(C(F)(F)F)cc(C(F)(F)F)c2)cc1
2. CN(c1cc2ncc(=O)[nH]c2cc1NC(N)=NCc1ccc(Cl)cc1)C1CCCCC1
3. Cc1ccc2c(n1)C(=O)C(Br)=C(CC(C)C)C2=O

1: 102; 2: 92.7; 3: 110
